Source of measurements: paper PMC9743428

biological target: FFAR1 (Homo sapiens, UniProt O14842); assay: IP accumulation assay in transiently transfected COS7 cells, FFAR1; format: cell-based; conditions: as compared to the unsubstituted phenyl 54; range for the group
Sequence (O14842 whole entry): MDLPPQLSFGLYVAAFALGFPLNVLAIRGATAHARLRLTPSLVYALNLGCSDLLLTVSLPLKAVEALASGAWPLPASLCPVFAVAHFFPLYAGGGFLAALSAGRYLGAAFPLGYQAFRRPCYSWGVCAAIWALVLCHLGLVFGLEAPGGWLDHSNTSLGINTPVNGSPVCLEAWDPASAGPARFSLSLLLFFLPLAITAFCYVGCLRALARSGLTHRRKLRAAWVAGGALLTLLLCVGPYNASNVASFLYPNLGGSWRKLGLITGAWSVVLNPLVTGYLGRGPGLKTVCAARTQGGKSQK
Give improved potency on FFAR1 for every item shown.

Input line: improved potency on FFAR1 for `Cc1cc(OCc2nc(N)nc(NCCc3cccc(C(F)(F)F)c3)n2)cc(N2CCCC2=O)c1` ?
Output line: 2–8 fold

Input line: improved potency on FFAR1 for `Cc1cccc(CCNc2nc(N)nc(COc3cc(C)cc(N4CCCC4=O)c3)n2)c1` ?
Output line: 2–8 fold

Input line: improved potency on FFAR1 for `Cc1cc(OCc2nc(N)nc(NCCc3cccc(Cl)c3)n2)cc(N2CCCC2=O)c1` ?
Output line: 2–8 fold

Input line: improved potency on FFAR1 for `Cc1cc(OCc2nc(N)nc(NCCc3cccc(OC(F)F)c3)n2)cc(N2CCCC2=O)c1` ?
Output line: 2–8 fold

Input line: improved potency on FFAR1 for `COc1cccc(CCNc2nc(N)nc(COc3cc(C)cc(N4CCCC4=O)c3)n2)c1` ?
Output line: 2–8 fold
